- SYSTEM_TESTED: T1, human NGF (his tag) (human, UniProt P01138 122-241, limits assumed)
- T1 construct: Captured on Ni-NTA sensors in the ForteBio Octet assay; also called hNGF; antigen; not shown: his tag
- TEST_DESCRIPTION: BLI (ForteBio Octet), method of example 4
Below, each entry is listed with its recorded Kd.
I only need the number, in nM, no unit after it.

[
  {
    "BINDER": "human mouse chimeric antibody AB5C1 (antibody, V domains shown) VH: QVQLKESGPGLVAPSQSLSITCTVSGFSLTGYGVNWVRQPPGKGLEWLGMIWADGDTDYNSALKSRLSISKDNSKSQVFLKVNNLQTDDTARYYCARDSYYYGYNFFDVWGAGTTVTVSS VL: DIQMTQTTSSLSASLGDRVTISCRASQDISNYLNWYQQKPEGTLKLLIYYTSRLHSGVPSRFSGSGSGTDYSLTISSLEQEDIATYFCQQGNTLPRTFGGGTKLEIK",
    "Kd / nM": 0.0299
  }
]

Data request: Find the recorded Kd belonging to humanized antibody AB5D4 (antibody, V domains shown, Humanized from #2 by CDR transplantation) VH: QVQLVQSGAEVKKPGASVKVSCKASGYTFTDYWMHWVKQAPGQGLEWMGIIYPGDGYTSYAQKFQGRVTMTRDTSTSTVYMELSSLRSEDTAVYYCARRAAYYTMDYWGQGTLVTVSS VL: DIQMTQSPSSLSASVGDRVTITCRASQDVNTALAWYQQKPGKAPKLLLYWASRLETGVPSRFSGSGSGTDYTLTISSLQPEDFATYYCQQHYSSPWTFGGGTKVEIT and report it.
Data returned: 0.0182

Data request: Find the recorded Kd belonging to humanized antibody AB5D5 (antibody, V domains shown, Humanized from #2 by CDR transplantation) VH: QVQLVQSGAEVKKPGASVKVSCKASGYTFTDYWMHWVKQAPGQGLEWMGIIYPGDGYTSYIQKFQGRVTMTRDTSTSTVYMELSSLRSEDTAVYYCARRAAYYTMDYWGQGTLVTVSS VL: DIQMTQSPSSLSASVGDRVTITCRASQDVNTALAWYQQKPGKAPKLLLYWASRLETGVPSRFSGSGSGTDYTLTISSLQPEDLATYYCQQHYSSPWTFGGGTKVEIT and report it.
Data returned: 0.0154
